System: Fer (mouse);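 further: 11-residue human phosphosite peptides and single-mutation variants displayed on the E. coli surface, counted by deep sequencing, each peptide's frequency after selection divided by its frequency in the unselected input library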;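 further: frequency after pTyr selection over input frequency; kinase dosed for 20-30% of maximal phosphorylation in three min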
testDetails: phosphorylation enrichment, bacterial display (enrichment ratio); higher = better substrate or ligand; peptides without Tyr show the background
# key: entry, value: phosphorylation enrichment
assayMetric: phosphorylation enrichment

TLNFCYQQVKS [PTK2_Y148_F147C] : 0.501
LSIQCYLRASD [HMGCS2_Y262_L266S] : 2.44
TIMTNYNPNFC [ALK_Y1092_D1091N_YF] : 0.512
APRKVYDTQDD [ZFPL1_Y215_R218Q] : 0.67
VFSTDCFRVGG [NTRK2_Y706_Y706C_YF] : 0.761
KAIMTYVPSFY [ACTN4_Y260_S262P] : 0.415
EAEPFYCSLRD [NPHS1_Y1139_R1140C_YF] : 2.19
